Measured values drawn from patent US20260085062A1 for this set.

pIC50: −log10 of the molar value.
Consider the following pIC50 values measured on CLK2 (Homo sapiens).
Sequence (P49760 whole entry): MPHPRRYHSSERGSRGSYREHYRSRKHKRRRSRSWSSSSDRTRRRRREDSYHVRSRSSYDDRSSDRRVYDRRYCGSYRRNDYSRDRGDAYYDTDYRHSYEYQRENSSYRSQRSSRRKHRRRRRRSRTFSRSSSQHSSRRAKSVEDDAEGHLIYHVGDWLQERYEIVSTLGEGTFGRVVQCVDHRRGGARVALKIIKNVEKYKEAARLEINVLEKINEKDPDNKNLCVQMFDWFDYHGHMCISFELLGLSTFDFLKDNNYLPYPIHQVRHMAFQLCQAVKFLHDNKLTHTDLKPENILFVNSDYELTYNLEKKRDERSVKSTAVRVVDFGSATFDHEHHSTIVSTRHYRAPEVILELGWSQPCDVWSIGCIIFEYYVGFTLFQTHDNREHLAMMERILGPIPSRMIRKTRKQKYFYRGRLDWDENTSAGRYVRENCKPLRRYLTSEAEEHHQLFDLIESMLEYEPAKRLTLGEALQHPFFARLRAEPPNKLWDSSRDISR
measured-quantity: pIC50

Record excerpt, results attached:
N#Cc1nncn1-c1cc(NCCCNC(=O)CCNCc2ccc(OC(F)(F)F)c(Cl)c2)c2cn[nH]c2c1 | 5.90
O=C(CCNCc1ccc(OC(F)(F)F)c(Cl)c1)NCCCNc1cc(-c2nnc[nH]2)cc2[nH]ncc12 | 5.22
COc1n[nH]cc1-c1cc(NCCOCCCCNCc2cc3cc(C(F)(F)F)ccc3[nH]2)c2cn[nH]c2c1 | 7.62

P: Fc1cc(CNCCCCOCCNc2cc(-n3cnnc3)c(Cl)c3[nH]ncc23)cc(F)c1OC(F)(F)F
Q: N#CCc1cc(Cl)cc(CNCCCCOC2CN(c3cc(-n4cnnc4)cc4[nH]ncc34)C2)c1
IN: Please state the entry with greater pIC50 among P and Q . Write down the label attached to your selection.
OUT: Q
